# Dmax annotations
# TARGET_OR_TEST_SYSTEM: p300 (Homo sapiens)
# Construct: host or cells: A549 P300 HiBit cells
# Sequence (Q09472 whole entry): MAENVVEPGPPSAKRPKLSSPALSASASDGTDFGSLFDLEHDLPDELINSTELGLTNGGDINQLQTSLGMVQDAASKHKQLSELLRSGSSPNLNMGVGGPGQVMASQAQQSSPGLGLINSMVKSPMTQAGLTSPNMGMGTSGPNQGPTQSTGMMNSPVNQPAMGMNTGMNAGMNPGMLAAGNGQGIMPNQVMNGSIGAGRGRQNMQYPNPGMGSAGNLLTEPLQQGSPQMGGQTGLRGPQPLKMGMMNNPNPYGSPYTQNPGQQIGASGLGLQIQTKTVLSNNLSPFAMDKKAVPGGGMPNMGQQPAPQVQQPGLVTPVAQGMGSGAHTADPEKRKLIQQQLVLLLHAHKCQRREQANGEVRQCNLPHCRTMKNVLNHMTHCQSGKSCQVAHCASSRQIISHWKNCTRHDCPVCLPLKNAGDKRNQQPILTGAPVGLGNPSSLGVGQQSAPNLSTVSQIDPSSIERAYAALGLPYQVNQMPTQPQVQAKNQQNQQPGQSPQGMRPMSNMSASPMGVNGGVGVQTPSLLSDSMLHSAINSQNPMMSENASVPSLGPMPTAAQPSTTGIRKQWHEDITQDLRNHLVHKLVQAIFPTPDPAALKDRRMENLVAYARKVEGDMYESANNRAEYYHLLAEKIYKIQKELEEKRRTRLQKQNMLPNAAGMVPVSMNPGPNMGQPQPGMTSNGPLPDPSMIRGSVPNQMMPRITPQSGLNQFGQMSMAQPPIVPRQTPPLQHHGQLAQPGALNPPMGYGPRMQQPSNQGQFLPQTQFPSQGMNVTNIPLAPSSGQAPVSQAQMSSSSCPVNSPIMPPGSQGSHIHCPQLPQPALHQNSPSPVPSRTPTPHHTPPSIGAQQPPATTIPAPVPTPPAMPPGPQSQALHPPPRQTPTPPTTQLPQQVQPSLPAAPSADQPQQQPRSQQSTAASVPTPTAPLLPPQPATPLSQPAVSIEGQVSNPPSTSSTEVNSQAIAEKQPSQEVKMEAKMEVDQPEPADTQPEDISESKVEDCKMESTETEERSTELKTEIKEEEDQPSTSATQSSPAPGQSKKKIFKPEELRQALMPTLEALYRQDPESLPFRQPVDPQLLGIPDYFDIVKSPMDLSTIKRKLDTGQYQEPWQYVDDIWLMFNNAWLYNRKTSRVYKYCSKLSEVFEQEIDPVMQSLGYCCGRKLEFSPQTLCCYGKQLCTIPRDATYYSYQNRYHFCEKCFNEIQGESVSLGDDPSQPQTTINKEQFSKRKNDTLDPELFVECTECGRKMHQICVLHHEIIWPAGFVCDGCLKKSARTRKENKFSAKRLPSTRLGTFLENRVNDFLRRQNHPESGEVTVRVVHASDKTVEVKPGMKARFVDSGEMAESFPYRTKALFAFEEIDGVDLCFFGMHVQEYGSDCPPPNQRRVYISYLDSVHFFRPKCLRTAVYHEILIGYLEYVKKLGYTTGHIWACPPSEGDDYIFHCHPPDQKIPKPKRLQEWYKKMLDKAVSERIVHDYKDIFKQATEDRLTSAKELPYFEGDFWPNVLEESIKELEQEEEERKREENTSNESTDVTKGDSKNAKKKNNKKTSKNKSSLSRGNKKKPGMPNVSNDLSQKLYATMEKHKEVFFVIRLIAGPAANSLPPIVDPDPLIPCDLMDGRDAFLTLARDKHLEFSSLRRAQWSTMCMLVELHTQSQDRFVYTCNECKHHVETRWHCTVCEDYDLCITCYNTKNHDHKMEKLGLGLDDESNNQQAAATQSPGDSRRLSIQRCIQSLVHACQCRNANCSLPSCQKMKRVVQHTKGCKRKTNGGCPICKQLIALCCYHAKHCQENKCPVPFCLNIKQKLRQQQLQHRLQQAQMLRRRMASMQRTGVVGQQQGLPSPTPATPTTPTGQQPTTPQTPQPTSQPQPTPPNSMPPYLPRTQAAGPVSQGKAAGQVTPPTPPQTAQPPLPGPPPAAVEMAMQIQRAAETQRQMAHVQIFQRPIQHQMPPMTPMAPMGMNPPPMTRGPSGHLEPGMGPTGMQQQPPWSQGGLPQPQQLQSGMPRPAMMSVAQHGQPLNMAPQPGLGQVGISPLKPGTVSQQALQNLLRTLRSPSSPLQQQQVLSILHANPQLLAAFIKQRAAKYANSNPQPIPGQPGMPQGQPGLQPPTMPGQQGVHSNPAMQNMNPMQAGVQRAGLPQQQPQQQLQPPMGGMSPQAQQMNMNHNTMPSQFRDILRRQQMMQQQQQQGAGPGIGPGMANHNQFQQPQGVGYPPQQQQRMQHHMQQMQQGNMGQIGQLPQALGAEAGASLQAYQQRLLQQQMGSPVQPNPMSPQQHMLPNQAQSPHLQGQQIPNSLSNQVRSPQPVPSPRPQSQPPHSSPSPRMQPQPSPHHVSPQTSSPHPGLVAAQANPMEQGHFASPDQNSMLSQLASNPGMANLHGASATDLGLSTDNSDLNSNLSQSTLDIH
# ASSAY_REMARKS: P300 degradation, HiBit technology in A549 P300 HiBit cells (2 h)
# Type: cell-based
# CONDITION_PARAMETERS: A549, A549 P300 HiBit cells, 2 hrs post treatment

Query block: What Dmax value was documented for this compound, Cc1cc2c(N3CCCc4nc(-c5ccc(C(=O)NCC#Cc6cc7c(C8CCC(=O)NC8=O)nccc7n6C)nc5)ncc43)cc(C3CCOCC3)cc2n(C)c1=O (stereo not drawn) [Example B136] ?
Result block: 60 to 79%

Query block: Entry CC(C)c1cc(N(C)c2cnc(-c3ccc(C(=O)NCC#Cc4ccc5cnn(C6CCC(=O)NC6=O)c5c4)nc3)nc2)cc2c1n(C)c(=O)n2C (stereo not drawn) [Example A211] please
Result block: > 80%

Query block: Entry CCc1cc(-c2cccc3cc(-c4ccc(C(=O)NCC#Cc5ccc6c(C)nn(C7CCC(=O)NC7=O)c6c5)nc4)ncc23)c2cc(C)c(=O)n(C)c2c1 (stereo not drawn) [Example B1] please
Result block: 60 to 79%
